Cited source for all entries: ChEMBL document CHEMBL4052800

System: HL-60
Experiment: Cytotoxicity against human HL60 cells assessed as reduction in cell viability after 48 hrs by WST-8 assay
Format: functional, cell-based
Settings: HL-60, 48 h
# note: exactly 70 µM is not below, so it is FALSE; use TRUE for EC50 strictly under it

COc1ccc(C[C@H]2C(=O)OC[C@@H]2Cc2ccccc2)cc1	TRUE
Cc1ccccc1C[C@H]1C(=O)OC[C@@H]1Cc1ccccc1	TRUE
COc1cccc(C[C@H]2COC(=O)[C@@H]2Cc2ccc(Cl)c(Cl)c2)c1	TRUE
COc1cccc(C[C@H]2C(=O)OC[C@@H]2Cc2ccccc2)c1	TRUE
Fc1ccc(C[C@H]2COC[C@@H]2Cc2ccc(Cl)c(Cl)c2)cc1F	TRUE
Cc1cccc(C[C@H]2COC[C@@H]2Cc2ccc(Cl)c(Cl)c2)c1	TRUE
O=C1OC[C@H](Cc2ccccc2)[C@H]1Cc1ccccc1O	FALSE
O=C1OC[C@H](Cc2ccccc2)[C@H]1Cc1ccccc1Cl	TRUE
COc1ccc(C[C@H]2COC[C@@H]2Cc2ccc(Cl)c(Cl)c2)cc1OC	TRUE
CCCCOc1ccc(C[C@H]2COC[C@@H]2Cc2ccccc2)cc1	TRUE
COc1ccccc1C[C@H]1COC(=O)[C@@H]1Cc1ccc(Cl)c(Cl)c1	TRUE
Fc1ccccc1C[C@H]1COC[C@@H]1Cc1ccc(Cl)c(Cl)c1	TRUE
Oc1ccc(C[C@H]2COC[C@@H]2Cc2ccc(Cl)c(Cl)c2)cc1	TRUE
O=C1OC[C@H](Cc2ccccc2)[C@H]1Cc1ccc(O)cc1	FALSE
O=C1OC[C@H](Cc2ccc(F)c(F)c2)[C@H]1Cc1ccc(Cl)c(Cl)c1	TRUE
CCCCc1ccc(C[C@H]2COC[C@@H]2Cc2ccc(Cl)c(Cl)c2)cc1	TRUE
O=C1OC[C@H](Cc2ccccc2)[C@H]1Cc1cccc(F)c1	FALSE
Cc1ccc(C[C@H]2COC[C@@H]2Cc2ccc(Cl)c(Cl)c2)cc1C	TRUE
O=C1OC[C@H](Cc2ccccc2)[C@H]1Cc1cccc(Cl)c1	TRUE
O=C1OC[C@H](Cc2ccccc2)[C@H]1Cc1cccc(O)c1	FALSE
COc1ccccc1C[C@H]1C(=O)OC[C@@H]1Cc1ccccc1	FALSE
CCCCOc1ccc(C[C@H]2C(=O)OC[C@@H]2Cc2ccccc2)cc1OCCCC	FALSE
CCCCOc1cc(C[C@H]2C(=O)OC[C@@H]2Cc2ccccc2)ccc1O	TRUE
COc1cc(C[C@H]2C(=O)OC[C@@H]2Cc2ccccc2)ccc1O	FALSE
CCCCCCCOc1ccc(C[C@H]2C(=O)OC[C@@H]2Cc2ccccc2)cc1	FALSE
COc1ccc(C[C@H]2COC(=O)[C@@H]2Cc2ccc(Cl)c(Cl)c2)cc1	TRUE
COc1cc(C[C@H]2COC(=O)[C@@H]2Cc2ccc(O)c(OC)c2)ccc1O	FALSE
O=C1OC[C@H](Cc2ccccc2)[C@H]1Cc1cccc(C(F)(F)F)c1	TRUE
O=C1OC[C@H](Cc2ccccc2)[C@H]1Cc1ccc(Cl)c(Cl)c1	TRUE
O=C1OC[C@H](Cc2cccc(F)c2)[C@H]1Cc1ccc(Cl)c(Cl)c1	TRUE
O=C1OC[C@H](Cc2ccccc2)[C@H]1Cc1ccc(OC(F)(F)F)cc1	TRUE

----------
Test system: HL-60
Test: Cytotoxicity against human HL60 cells assessed as reduction in cell viability after 48 hrs by WST-8 assay
Format: functional, cell-based
Settings: HL-60, 48 h
Measurement type: EC50 (µM)

COc1cccc(C[C@H]2COC[C@@H]2Cc2ccc(Cl)c(Cl)c2)c1	73
COc1ccc(C[C@H]2COC[C@@H]2Cc2ccc(Cl)c(Cl)c2)cc1	39
O=C1OC[C@H](Cc2ccccc2O)[C@H]1Cc1ccc(Cl)c(Cl)c1	33

----------
Parameter pEC50: see the listing below.
Test system: HL-60
Assay: Cytotoxicity against human HL60 cells assessed as reduction in cell viability after 48 hrs by WST-8 assay
Assay type: functional, cell-based
Settings: HL-60, 48 h
pEC50: −log10 of the molar value.
Measurement type: pEC50

COc1cc(C[C@@H]2COC(=O)[C@H]2Cc2ccc(O)c(OC)c2)ccc1O	< 4.00
CCCCOc1ccc(/C=C2/C(=O)OC[C@@H]2Cc2ccccc2)cc1	< 4.00
COc1ccc(C[C@H]2C(=O)OC[C@@H]2Cc2ccccc2)cc1OC	< 4.00
